Target: Gonadotropin-releasing hormone receptor (Rattus norvegicus)
Sequence (P30969 whole entry): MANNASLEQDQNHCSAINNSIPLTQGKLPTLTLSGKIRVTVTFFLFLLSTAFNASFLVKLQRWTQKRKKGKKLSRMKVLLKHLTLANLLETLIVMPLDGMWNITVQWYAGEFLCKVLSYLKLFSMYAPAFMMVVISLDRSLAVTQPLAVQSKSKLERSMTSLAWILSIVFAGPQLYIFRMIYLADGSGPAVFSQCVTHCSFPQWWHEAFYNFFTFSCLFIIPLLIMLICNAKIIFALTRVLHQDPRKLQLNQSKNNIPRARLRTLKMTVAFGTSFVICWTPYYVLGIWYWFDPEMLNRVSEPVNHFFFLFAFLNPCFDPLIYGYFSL
Assay: Competitive radioligand binding assay, in human HEK293 cells stably transfected with the rat Gonadotropin-releasing hormone receptor
Type: cell-based
Positions of bridges follow the written chain, without caps; N, C: chain ends. Non-standard residues stand in square brackets, D forms with d. Residues, ends and D or L forms follow the SMILES beside them. dPhe(4-Cl) = N[C@H](Cc1ccc(Cl)cc1)C(=O)O; d2Nal = N[C@H](Cc1ccc2ccccc2c1)C(=O)O; Dap = NC[C@H](N)C(=O)O
MEASUREMENT NAME: Ki (pM)
Report the figure in pM without appending any unit label.

Example results:
{"columns": ["MOLECULE", "REPORTED RESULT"],
 "data": [
  ["CC(=O)N[C@H](Cc1ccc2ccccc2c1)C(=O)N[C@H](Cc1ccc(Cl)cc1)C(=O)N[C@H](Cc1cccnc1)C(=O)N[C@H]1CC(=O)NC[C@@H](C(N)=O)NC(=O)[C@@H]2CCCN2C(=O)[C@@H]2CCNC(=O)[C@H](CCCN=C(N)N)NC(=O)CC[C@H](NC1=O)C(=O)N[C@H](Cc1cccnc1)C(=O)N[C@@H](CC(C)C)C(=O)N2", 590],
  ["CC(=O)N[C@H](Cc1ccc2ccccc2c1)C(=O)N[C@H](Cc1ccc(Cl)cc1)C(=O)N[C@H](Cc1cccnc1)C(=O)N[C@H]1CC(=O)NC[C@@H](C(N)=O)NC(=O)[C@@H]2CCCN2C(=O)[C@@H]2CCNC(=O)CNC(=O)C[C@H](NC1=O)C(=O)N[C@H](CCCN=C(N)N)C(=O)N[C@@H](CC(C)C)C(=O)N2", 350]
]}

Here's the next entry for you.
The molecule listed as CC(=O)N[C@H](Cc1ccc2ccccc2c1)C(=O)N[C@H](Cc1ccc(Cl)cc1)C(=O)N[C@H](Cc1c[nH]c2ccccc12)C(=O)N[C@H]1CC(=O)NC[C@@H](C(N)=O)NC(=O)[C@@H]2CCCN2C(=O)[C@@H]2CCCCNC(=O)CC[C@H](NC1=O)C(=O)N[C@H](CCCN=C(N)N)C(=O)N[C@@H](CC(C)C)C(=O)N2 (Ac-[d2Nal][dPhe(4-Cl)][dW]DE[dR]LKP[Dap]-NH2; lactam 4-10, 5-8) shows Ki equal to 320

---

Target: Gonadotropin-releasing hormone receptor (Rattus norvegicus)
Test: Competitive radioligand binding assay, in human HEK293 cells stably transfected with the rat Gonadotropin-releasing hormone receptor
Format: cell-based
Conditions: hek293
Positions of bridges follow the written chain, without caps; N, C: chain ends. Non-standard residues stand in square brackets, D forms with d. Residues, ends and D or L forms follow the SMILES beside them. dPhe(4-F) = N[C@H](Cc1ccc(F)cc1)C(=O)O; d2Nal = N[C@H](Cc1ccc2ccccc2c1)C(=O)O; Dap = NC[C@H](N)C(=O)O
Listed here are compounds together with their documented pKi.
Just the number, please; pKi means minus log10 of the concentration in mol/L.

{"columns": ["COMPOUND", "ASSAY SYSTEM", "pKi"],
 "data": [
  ["CC(=O)N[C@H](Cc1ccc2ccccc2c1)C(=O)N[C@H](Cc1ccc(F)cc1)C(=O)N[C@H](Cc1c[nH]c2ccccc12)C(=O)N[C@H]1CC(=O)NCC[C@@H](C(N)=O)NC(=O)[C@@H]2CCCN2C(=O)[C@H](CCCNC(=N)N)NC(=O)[C@H](CC(C)C)NC(=O)[C@@H](CCCNC(=N)N)NC(=O)[C@H](Cc2ccc(O)cc2)NC1=O", "Gonadotropin-releasing hormone receptor (Rattus norvegicus)", 8.00],
  ["CC(=O)N[C@H](Cc1ccc2ccccc2c1)C(=O)N[C@H](Cc1ccc(F)cc1)C(=O)N[C@H](Cc1c[nH]c2ccccc12)C(=O)N[C@H]1CCC(=O)NC(C(N)=O)NC(=O)[C@@H]2CCCN2C(=O)[C@H](CCCNC(=N)N)NC(=O)[C@H](CC(C)C)NC(=O)[C@@H](CCCNC(=N)N)NC(=O)[C@H](Cc2ccc(O)cc2)NC1=O (stereo not given in full)", "Gonadotropin-releasing hormone receptor (Rattus norvegicus)", 8.89],
  ["CC(=O)N[C@H](Cc1ccc2ccccc2c1)C(=O)N[C@H](Cc1ccc(F)cc1)C(=O)N[C@H](Cc1c[nH]c2ccccc12)C(=O)N[C@H]1CC(=O)NC[C@@H](C(N)=O)NC(=O)[C@@H]2CCCN2C(=O)[C@H](CCCN=C(N)N)NC(=O)[C@H](CC(C)C)NC(=O)[C@@H](CCCN=C(N)N)NC(=O)[C@H](Cc2ccc(O)cc2)NC1=O (Ac-[d2Nal][dPhe(4-F)][dW]DY[dR]LRP[Dap]-NH2; lactam 4-10)", "Gonadotropin-releasing hormone receptor (Rattus norvegicus)", 9.44],
  ["CC(=O)N[C@H](Cc1ccc2ccccc2c1)C(=O)N[C@H](Cc1ccc(F)cc1)C(=O)N[C@H](Cc1c[nH]c2ccccc12)C(=O)N[C@H]1CC(=O)NC(C(N)=O)NC(=O)[C@@H]2CCCN2C(=O)[C@H](CCCNC(=N)N)NC(=O)[C@H](CC(C)C)NC(=O)[C@@H](CCCNC(=N)N)NC(=O)[C@H](Cc2ccc(O)cc2)NC1=O (stereo not given in full)", "Gonadotropin-releasing hormone receptor (Rattus norvegicus)", 8.89]
]}

The compound listed as CC[C@H](NC(C)=O)C(=O)N[C@@H](Cc1ccc(Cl)cc1)C(=O)N[C@@H](Cc1c[nH]c2ccccc12)C(=O)N[C@@H](CC(=O)O)C(=O)N[C@@H]1CCC(=O)NCCCC[C@@H](C(=O)N2CCC[C@@H]2C(=O)N[C@@H](C)C(N)=O)NC(=O)[C@H](CC(C)C)NC(=O)[C@@H](CCCNC(=N)N)NC1=O (stereo in doubt; 13) shows pKi equal to 9.08
